Ref: patent US9771353B2

target: Syk (Homo sapiens (Human))
value-type: IC50 (nM)

[A] COCCOCCOCCOc1cc(Nc2nccc(Oc3ccc(NC(=O)Nc4cc(C(C)(C)C)nn4C)c4ccccc34)n2)cc(OC)c1
[B] C#Cc1cc(Nc2nccc(Oc3ccc(NC(=O)Nc4cc(C(C)C)nn4C)c4ccccc34)n2)cc(C(=O)NCCN2CCOCC2)c1
Q. Which record would sort first by descending IC50, A or B ? Pick one; state its label.
A. B
(B: 819 nM, A: 543 nM)

====

system: d-U937 cells; assay: Accumulation of β catenin in d-U937 cells, assay (m); format: cell-based, human; conditions: 10 μg/mL test compound; normalised to the same reference compound
value-type: % β-catenin induction (%)
Respond numerically; units are % and should not be typed.

Completed entries (count: 5):
[
  {
    "compound": "C#Cc1cc(Nc2cc(Oc3ccc(NC(=O)Nc4cc(C(C)(C)C)nn4C)c4ccccc34)ccn2)cc(C(=O)NCCOCCOCCOC)c1 [Example 9]",
    "value-type": "% β-catenin induction",
    "value-units": "%",
    "quantitative-readout": 4.5
  },
  {
    "compound": "C#Cc1cc(Nc2nccc(Oc3ccc(NC(=O)Nc4cc(C(C)(C)C)nn4C)c4ccccc34)n2)cc(C(=O)NCCOCCOCCOC)c1 [Example 7]",
    "value-type": "% β-catenin induction",
    "value-units": "%",
    "quantitative-readout": 9.5
  },
  {
    "compound": "COCCOCCOCCOc1cc(Nc2nccc(Oc3ccc(NC(=O)Nc4cc(C(C)(C)C)nn4C)c4ccccc34)n2)cc(OC)c1 [Example 2]",
    "value-type": "% β-catenin induction",
    "value-units": "%",
    "quantitative-readout": 4.5
  },
  {
    "compound": "COc1cc(Nc2nccc(Oc3ccc(NC(=O)Nc4cc(C(C)(C)C)nn4C)c4ccccc34)n2)cc(S(=O)(=O)C2CC2)c1 [Example 3]",
    "value-type": "% β-catenin induction",
    "value-units": "%",
    "quantitative-readout": 27
  },
  {
    "compound": "COCCOCCOCCOc1cc(Nc2cc(Oc3ccc(NC(=O)Nc4cc(C(C)(C)C)nn4C)c4ccccc34)ccn2)cc(OC)c1 [Example 5]",
    "value-type": "% β-catenin induction",
    "value-units": "%",
    "quantitative-readout": "−2"
  }
]

Q. // lookup % β-catenin induction for C#Cc1cc(Nc2nccc(Oc3ccc(NC(=O)Nc4cc(C(C)(C)C)nn4CC)c4ccccc34)n2)cc(C(=O)NCCOCCOCCOC)c1 [Example 8]
A. 3.5

====

p38 MAPKα (Homo sapiens (Human), UniProt Q16539): reported IC50 for various molecules.
Sequence (Q16539 whole entry): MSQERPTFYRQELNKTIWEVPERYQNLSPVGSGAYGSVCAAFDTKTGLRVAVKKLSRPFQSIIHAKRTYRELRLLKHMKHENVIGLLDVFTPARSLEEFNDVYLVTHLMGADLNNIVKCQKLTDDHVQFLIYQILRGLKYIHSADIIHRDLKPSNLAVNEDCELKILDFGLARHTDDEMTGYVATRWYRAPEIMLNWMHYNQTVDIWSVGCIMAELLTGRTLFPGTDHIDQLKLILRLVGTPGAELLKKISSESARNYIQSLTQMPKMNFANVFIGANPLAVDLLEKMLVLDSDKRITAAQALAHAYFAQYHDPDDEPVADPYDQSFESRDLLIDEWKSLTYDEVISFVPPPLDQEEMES
value-type: IC50 (nM)

[
  {
    "molecule": "C#Cc1cc(Nc2nccc(Oc3ccc(NC(=O)Nc4cc(C(C)C)nn4C)c4ccccc34)n2)cc(C(=O)NCCN2CCOCC2)c1 [Example 10]",
    "target-desc": "p38 MAPKα (Homo sapiens (Human), UniProt Q16539)",
    "quantitative-readout": 9
  },
  {
    "molecule": "COCCOCCOCCOc1cc(Nc2nccc(Oc3ccc(NC(=O)Nc4cc(C(C)(C)C)nn4-c4ccc(C)cc4)c4ccccc34)n2)cc(OC)c1 [Reference Compound B, reference compound]",
    "target-desc": "p38 MAPKα (Homo sapiens (Human), UniProt Q16539)",
    "quantitative-readout": 139
  },
  {
    "molecule": "C#Cc1cc(Nc2cc(Oc3ccc(NC(=O)Nc4cc(C(C)(C)C)nn4C)c4ccccc34)ccn2)cc(C(=O)NCCOCCOCCOC)c1 [Example 9]",
    "target-desc": "p38 MAPKα (Homo sapiens (Human), UniProt Q16539)",
    "quantitative-readout": 66
  }
]

[1] C#Cc1cc(Nc2nccc(Oc3ccc(NC(=O)Nc4cc(C(C)(C)C)nn4CC)c4ccccc34)n2)cc(C(=O)NCCOCCOCCOC)c1 [Example 8]
[2] C#Cc1cc(Nc2nccc(Oc3ccc(NC(=O)Nc4cc(C(C)(C)C)nn4-c4ccc(C)cc4)c4ccccc34)n2)cc(C(=O)NCCN2CCOCC2)c1 [Reference Compound A, reference compound]
[3] COCCOCCOCCOc1cc(Nc2cc(Oc3ccc(NC(=O)Nc4cc(C(C)(C)C)nn4C)c4ccccc34)ccn2)cc(OC)c1 [Example 5]
[4] C#Cc1cc(Nc2nccc(Oc3ccc(NC(=O)Nc4cc(C(C)(C)C)nn4C)c4ccccc34)n2)cc(C(=O)NCCOCCOCCOC)c1 [Example 7]
Q. Order the 4 molecules from highest to lowest IC50. Form field (ranking): labels in requested order.
A. 3, 2, 1, 4
(3: 160 nM, 2: 54 nM, 1: 20 nM, 4: 11 nM)

====

molecular target: c-Src (Homo sapiens (Human), UniProt P12931); assay: c-Src enzyme inhibition (FRET, Z-LYTE); assay type: biochemical
Sequence (P12931 whole entry, looked up): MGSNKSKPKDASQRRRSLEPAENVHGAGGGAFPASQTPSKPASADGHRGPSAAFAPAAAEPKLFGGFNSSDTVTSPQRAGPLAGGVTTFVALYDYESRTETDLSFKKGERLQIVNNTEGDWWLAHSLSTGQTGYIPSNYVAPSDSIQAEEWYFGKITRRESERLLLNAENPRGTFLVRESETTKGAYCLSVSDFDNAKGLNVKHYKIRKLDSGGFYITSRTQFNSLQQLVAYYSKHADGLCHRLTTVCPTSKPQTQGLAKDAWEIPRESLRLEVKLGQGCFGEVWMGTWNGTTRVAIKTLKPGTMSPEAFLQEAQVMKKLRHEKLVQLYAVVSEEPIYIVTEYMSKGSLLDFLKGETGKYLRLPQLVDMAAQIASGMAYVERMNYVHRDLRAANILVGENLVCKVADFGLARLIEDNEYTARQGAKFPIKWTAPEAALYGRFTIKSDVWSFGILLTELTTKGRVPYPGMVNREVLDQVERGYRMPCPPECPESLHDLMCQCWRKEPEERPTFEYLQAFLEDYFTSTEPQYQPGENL
pIC50: −log10 of the molar value.
value-type: pIC50

[
  {
    "smi": "COCCOCCOCCOc1cc(Nc2nccc(Oc3ccc(NC(=O)Nc4cc(C(C)(C)C)nn4C)c4ccccc34)n2)cc(OC)c1",
    "quantitative-readout": 8.30
  }
]

[A] C#Cc1cc(Nc2cc(Oc3ccc(NC(=O)Nc4cc(C(C)(C)C)nn4C)c4ccccc34)ccn2)cc(C(=O)NCCOCCOCCOC)c1
[B] COCCOCCOCCOc1cc(Nc2cc(Oc3ccc(NC(=O)Nc4cc(C(C)(C)C)nn4C)c4ccccc34)ccn2)cc(OC)c1
[C] C#Cc1cc(Nc2nccc(Oc3ccc(NC(=O)Nc4cc(C(C)(C)C)nn4C)c4ccccc34)n2)cc(C(=O)NCCOCCOCCOC)c1
Q. Arrange items by their pIC50 values in increasing order. Form field (ranking): labels in requested order.
A. A, B, C
(A: 7.28, B: 8.00, C: 8.30)

====

GSK3α (Homo sapiens (Human), UniProt P49840): reported IC50 for various molecules.
Sequence (P49840 whole entry): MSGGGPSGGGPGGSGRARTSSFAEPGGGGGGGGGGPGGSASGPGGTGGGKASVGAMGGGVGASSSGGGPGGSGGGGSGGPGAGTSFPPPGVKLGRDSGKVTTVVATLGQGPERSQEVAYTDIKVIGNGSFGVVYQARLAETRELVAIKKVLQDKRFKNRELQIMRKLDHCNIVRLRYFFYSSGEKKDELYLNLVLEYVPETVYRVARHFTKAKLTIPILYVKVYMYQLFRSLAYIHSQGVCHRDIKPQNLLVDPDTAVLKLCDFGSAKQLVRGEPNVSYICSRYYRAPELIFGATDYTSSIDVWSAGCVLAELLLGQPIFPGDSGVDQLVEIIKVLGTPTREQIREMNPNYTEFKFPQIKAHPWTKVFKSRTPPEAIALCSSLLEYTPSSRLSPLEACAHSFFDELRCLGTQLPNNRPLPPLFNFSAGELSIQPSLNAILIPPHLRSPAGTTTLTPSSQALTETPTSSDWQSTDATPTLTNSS
value-type: IC50 (µM)

[
  {
    "smi": "C#Cc1cc(Nc2cc(Oc3ccc(NC(=O)Nc4cc(C(C)(C)C)nn4C)c4ccccc34)ccn2)cc(C(=O)NCCOCCOCCOC)c1",
    "IC50, µM": 12.4
  }
]

[I] C#Cc1cc(Nc2nccc(Oc3ccc(NC(=O)Nc4cc(C(C)(C)C)nn4C(C)(C)C)c4ccccc34)n2)cc(C(=O)NCCOCCOCCOC)c1
[II] C#Cc1cc(Nc2nccc(Oc3ccc(NC(=O)Nc4cc(C(C)(C)C)nn4CC)c4ccccc34)n2)cc(C(=O)NCCOCCOCCOC)c1
[III] COCCOCCOCCOCCOCCOCCOCCOc1cc(Nc2nccc(Oc3ccc(NC(=O)Nc4cc(C(C)(C)C)nn4C)c4ccccc34)n2)cc(OC)c1
Q. Order the 3 molecules from highest to lowest IC50. Form field (ranking): labels in requested order.
A. I, II, III
(I: 13.1 µM, II: 3.07 µM, III: 1.23 µM)

====

test system: HT29 cells; experiment: IL-1β-induced IL-8 release in HT29 cells, assay (d); assay type: cell-based; details: Homo sapiens, HT-29, IL-1β-stimulated HT29 cells, read-out: IC50 Values for Inhibition of Cytokine Release, HT29 cells IL-8
pIC50: −log10 of the molar value.
value-type: pIC50

[
  {
    "smi": "C#Cc1cc(Nc2cc(Oc3ccc(NC(=O)Nc4cc(C(C)(C)C)nn4C)c4ccccc34)ccn2)cc(C(=O)NCCOCCOCCOC)c1",
    "quantitative-readout": 7.74
  }
]

[I] COCCOCCOCCOc1cc(Nc2nccc(Oc3ccc(NC(=O)Nc4cc(C(C)(C)C)nn4C)c4ccccc34)n2)cc(OC)c1
[II] C#Cc1cc(Nc2nccc(Oc3ccc(NC(=O)Nc4cc(C(C)C)nn4C)c4ccccc34)n2)cc(C(=O)NCCN2CCOCC2)c1
[III] C#Cc1cc(Nc2nccc(Oc3ccc(NC(=O)Nc4cc(C(C)(C)C)nn4C)c4ccccc34)n2)cc(C(=O)NCCN2CCOCC2)c1
Q. Order the 3 compounds from highest to lowest pIC50. Form field (ranking): labels in requested order.
A. I, III, II
(I: 7.78, III: 7.48, II: 6.57)
